Hello, the source for this data is ChEMBL document CHEMBL4689842, in case you need it.

Test system: U2OS
Assay: Multiplex assay against U2OS
Assay type: toxicity, cell-based
Conditions: human, 12 h, 10 µM, compound concentration 10 uM, replicate 1
For each record, write down the corresponding Population Tubulin-Different-Phenotype (%).
Numbers only; they are read as %.

# Population Tubulin-Different-Phenotype (%) (compound: Nc1nc2c(c(N3CCNCC3)n1)CCC1=C2[C@@H]2CCCC[C@@H]2O1 ) is 93

# Population Tubulin-Different-Phenotype (%) (compound: c1ccc2oc(-c3csc(C4CCN(Cc5nc6ncccc6[nH]5)CC4)n3)cc2c1 ) is 29

# Population Tubulin-Different-Phenotype (%) (compound: Cc1cc2c(cc1N1C(=O)c3cccc4c(CCCO)ccc(c34)C1=O)n(C)c(=O)n2C ) is 68

# Population Tubulin-Different-Phenotype (%) (compound: COc1cc2c(NC3CCN(C(C)C)CC3)nc(N3CCC(F)(F)CC3)nc2cc1OCCCN1CCCC1 ) is 100

# Population Tubulin-Different-Phenotype (%) (compound: CCc1cc2c(cc1CC)CC(NC[C@H](O)c1ccc(O)c3[nH]c(=O)ccc13)C2 ) is 90

# Population Tubulin-Different-Phenotype (%) (compound: CC(C)(C)c1cnc(CSc2cnc(NC(=O)C3CCNCC3)s2)o1 ) is 31

# Population Tubulin-Different-Phenotype (%) (compound: Cl.Cl.Nc1ncnc2c1c(-c1cccc(OCc3ccccc3)c1)cn2[C@H]1C[C@@H](CN2CCC2)C1 ) is 100

# Population Tubulin-Different-Phenotype (%) (compound: COc1ccc(NS(=O)(=O)c2sc3ccc(Cl)cc3c2C)cc1N1CCNCC1.Cl ) is 97

# Population Tubulin-Different-Phenotype (%) (compound: Cl.Cl.NC1(c2ccc(-c3nc4ccn5c(=O)[nH]nc5c4cc3-c3ccccc3)cc2)CCC1 ) is 70

---

For each record, write down the corresponding Population Fragmented Nuclei (%).
System: Fibroblast
Assay: Multiplex assay against human fibroblast
Assay type: toxicity, cell-based
Conditions: 24 h, 10 µM, compound concentration 10 uM, replicate 2
Numbers only; they are read as %.

Let me check: CC(C)N1CCC(C)(C)c2cc(C#Cc3ccc(C(=O)O)cc3)ccc21 , system Fibroblast, measured Population Fragmented Nuclei (%) is 49

Let me check: Nc1nc2c(c(N3CCNCC3)n1)CCC1=C2[C@@H]2CCCC[C@@H]2O1 , system Fibroblast, measured Population Fragmented Nuclei (%) is 8

Let me check: Cl.Cl.Nc1ncnc2c1c(-c1cccc(OCc3ccccc3)c1)cn2[C@H]1C[C@@H](CN2CCC2)C1 , system Fibroblast, measured Population Fragmented Nuclei (%) is 21

Let me check: Cc1cn(-c2cc(NC(=O)c3ccc4c(c3)CN(c3cncnc3)C[C@@H]4C)cc(C(F)(F)F)c2)cn1 , system Fibroblast, measured Population Fragmented Nuclei (%) is 66

Let me check: CCn1c(-c2nonc2N)nc2cnc(Oc3cccc(NC(=O)c4ccc(OCCN5CCOCC5)cc4)c3)cc21 [GSK-269962A] , system Fibroblast, measured Population Fragmented Nuclei (%) is 30

Let me check: c1ccc2oc(-c3csc(C4CCN(Cc5nc6ncccc6[nH]5)CC4)n3)cc2c1 , system Fibroblast, measured Population Fragmented Nuclei (%) is 59

Let me check: N#Cc1cnc(Nc2cc(NC[C@H]3CNCCO3)c(C(F)(F)F)cn2)cn1 [SRA-737] , system Fibroblast, measured Population Fragmented Nuclei (%) is 59

Let me check: CN(C)C/C=C/C(=O)Nc1cc2c(Nc3ccc(F)c(Cl)c3)ncnc2cc1O[C@H]1CCOC1.O=C(O)/C=C\C(=O)O.O=C(O)/C=C\C(=O)O [AFATINIB DIMALEATE] , system Fibroblast, measured Population Fragmented Nuclei (%) is 49

Let me check: CC(C)(C)c1cnc(CSc2cnc(NC(=O)C3CCNCC3)s2)o1 [BMS-387032] , system Fibroblast, measured Population Fragmented Nuclei (%) is 44
